assay_system: human B1R (bradykinin receptor 1) (Homo sapiens)
Construct: expressed in transfected cells; host or cells: CHO K1 cells
Sequence (P46663 1-353): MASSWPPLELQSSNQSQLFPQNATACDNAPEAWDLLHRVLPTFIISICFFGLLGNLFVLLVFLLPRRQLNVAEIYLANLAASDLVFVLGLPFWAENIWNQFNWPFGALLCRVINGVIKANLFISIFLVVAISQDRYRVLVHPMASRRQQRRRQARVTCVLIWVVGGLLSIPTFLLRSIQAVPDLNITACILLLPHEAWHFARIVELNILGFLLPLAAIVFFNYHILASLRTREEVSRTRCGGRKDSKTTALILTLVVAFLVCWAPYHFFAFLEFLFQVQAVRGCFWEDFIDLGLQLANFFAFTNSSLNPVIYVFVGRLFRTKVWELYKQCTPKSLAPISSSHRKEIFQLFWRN
experiment_notes: FLIPR Ca2+ assay (Fluo-4) on CHO K1 cells stably transfected with the human B1R gene (hB1R cells): % inhibition at 10 μM / IC50, agonist Lys-Des-Arg9-bradykinin
Type: cell-based
condition_info: CHO-K1, human B1R
A collection of molecules and their measured inhibition at 10 µM
measure_name: inhibition at 10 µM (%)

> print(dat)
                                   molecule         measure.name  value.measured
1  CN(C(=O)/C=C/c1ccccc1Cl)C1CCc2ccc(C(=O)N3CCC4(CC3)CCN(c3ccncc3)CC4)cc21 (stereo not shown)  inhibition at 10 µM              89
2  CC1(C)CC(NC(=O)c2c(Cl)cccc2Cl)c2cc(C(=O)N3CCC4(CC3)CCN(c3ccncc3)CC4)ccc21 (stereo not shown)  inhibition at 10 µM             100
3  CN(C)C1(c2ccc(F)cc2)CCC2(CCN(C(=O)c3ccc4c(c3)C(NC(=O)c3sccc3Cl)CC4)CC2)CC1 (stereo not shown)  inhibition at 10 µM              61
4  O=C(c1ccc2c(c1)CC[C@@H]2N1Cc2cccc(Cl)c2C1=O)N1CCC2(CC1)CCN(c1ccncc1)CC2  inhibition at 10 µM              92

* * *

assay_system: rat B1R (bradykinin receptor 1) (Rattus norvegicus)
Construct: expressed in transfected cells; host or cells: CHO K1 cells
Sequence (P97583 whole entry): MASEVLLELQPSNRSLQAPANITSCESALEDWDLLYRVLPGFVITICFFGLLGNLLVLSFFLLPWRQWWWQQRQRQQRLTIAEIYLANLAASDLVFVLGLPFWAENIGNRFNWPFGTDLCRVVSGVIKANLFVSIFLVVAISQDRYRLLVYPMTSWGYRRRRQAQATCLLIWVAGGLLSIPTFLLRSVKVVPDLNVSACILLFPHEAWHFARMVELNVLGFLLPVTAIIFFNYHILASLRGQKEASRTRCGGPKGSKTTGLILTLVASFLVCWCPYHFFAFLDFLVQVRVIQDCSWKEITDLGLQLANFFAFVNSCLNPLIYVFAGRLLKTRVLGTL
experiment_notes: FLIPR Ca2+ assay (Fluo-4) on CHO K1 cells stably transfected with the B1R gene of the rat (rB1R cells): % inhibition at 10 μM / IC50, agonist Des-Arg9-bradykinin
Type: cell-based
condition_info: CHO-K1, rat B1R
measure_name: inhibition at 10 µM (%)

> print(dat)
                                   molecule                              assay.system  value.measured
1  O=C(NC1CCc2ccc(C(=O)N3CCC4(CCN(Cc5csnn5)CC4)C3)cc21)c1ccccc1Cl (stereo not shown)  rat B1R (bradykinin receptor 1) (Rattus norvegicus)              91
2  Cc1ccc(C(=O)NC2CCc3ccc(C(=O)N4CCC5(CC4)CCN(c4ccncc4)CC5)cc32)c(F)c1 (stereo not shown)  rat B1R (bradykinin receptor 1) (Rattus norvegicus)             104
3  Cc1cc(C(=O)N2CCC3(CCN(C(=O)c4ccc5c(c4)C(NC(=O)c4sccc4Cl)CC5)C3)CC2)n(C(C)(C)C)n1 (stereo not shown)  rat B1R (bradykinin receptor 1) (Rattus norvegicus)              61
4  CN(C(=O)c1ccccc1Cl)C1CCc2ccc(C(=O)N3CCC4(CCN(Cc5ccncc5)CC4)CC3)cc21 (stereo not shown)  rat B1R (bradykinin receptor 1) (Rattus norvegicus)              29
5  CC1(C)Cc2ccc(C(=O)N3CCC4(CC3)CCN(c3ccncc3)CC4)cc2C1NS(=O)(=O)c1ccc(C(F)(F)F)cc1Cl (stereo not shown)  rat B1R (bradykinin receptor 1) (Rattus norvegicus)              67
6  O=C(NC1CCc2ccc(C(=O)N3CCC4(CC3)CCN(c3ccncc3)C4)cc21)c1sccc1Cl (stereo not shown)  rat B1R (bradykinin receptor 1) (Rattus norvegicus)             101
7  N#Cc1ccccc1CN1CCC2(CC1)CCN(C(=O)c1ccc3c(c1)C(NC(=O)c1ccccc1Cl)CC3)CC2 (stereo not shown)  rat B1R (bradykinin receptor 1) (Rattus norvegicus)              90
